- Study System: Neutrophil elastase (Homo sapiens)
- Protocol Notes: Inhibitory activity against Human Neutrophil Elastase by HNE-catalyzed hydrolysis of MeO-Suc-Ala-Ala-Pro-Val-pNa
pKi: −log10 of the molar value.
Measurement Kind: pKi

>  <Molecule>
CC(C)[C@H](NC(=O)Oc1ccc(F)cc1)C(=O)N1CCC[C@H]1C(=O)N[C@H](C(=O)C(F)(F)F)C(C)C

>  <pKi>
9.20

$$$$

A. CSc1ccc(C(=O)N[C@H](C(=O)N2CCCC2C(=O)NC(C(=O)C(F)(F)F)C(C)C)C(C)C)cc1 (stereo partly drawn)
B. CC(C)C(NC(=O)C1CCCN1C(=O)[C@@H](NS(=O)(=O)C12CC3CC(CC(C3)C1)C2)C(C)C)C(=O)C(F)(F)F (stereo partly drawn)
(Q) Which record shows the lower pKi: the first, A , or the second, B ? Record your answer as the label of the chosen record.
(A) A
(A: 8.64, B: 8.92)

* * *

- Study System: Neutrophil elastase (Homo sapiens, UniProt P08246)
- Sequence (P08246 whole entry): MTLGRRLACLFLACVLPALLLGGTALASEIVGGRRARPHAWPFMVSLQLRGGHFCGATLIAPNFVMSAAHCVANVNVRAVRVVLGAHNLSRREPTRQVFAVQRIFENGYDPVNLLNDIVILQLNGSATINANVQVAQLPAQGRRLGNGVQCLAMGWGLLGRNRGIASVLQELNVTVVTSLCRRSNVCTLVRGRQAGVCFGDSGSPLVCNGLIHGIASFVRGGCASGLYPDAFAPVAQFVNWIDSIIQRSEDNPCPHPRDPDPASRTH
- Protocol Notes: Inhibitory activity against Human Neutrophil Elastase by HNE-catalyzed hydrolysis of MeO-Suc-Ala-Ala-Pro-Val-pNa
pKi: −log10 of the molar value. Numbered stars: 1 amine (or outer) side, 2 acyl side, 3 side chain; on linkers, the order of the positions; unused ones are H or OH. Peptide text beside a SMILES is read from it. * marks the point of attachment. CO = O=C([*:1])[*:2]; NHPh = c1ccc(N*)cc1; CF3 = FC(F)(F)*
Measurement Kind: pKi

>  <Compound>
CCCN(CC(=O)N[C@H](C(=O)N1CCC[C@H]1C(=O)N[C@H](C(=O)C(F)(F)F)C(C)C)C(C)C)C(C)=O (HELM PEPTIDE1{[ac].[CCCN(CC(=O)[*:2])[*:1]].V.P.V.[FC(F)(F)[*:1]]}$$$$V2.0)

>  <pKi>
8.70

$$$$

1. CC(C)[C@H](NC(=O)c1ccc(C(=O)N2CCOCC2)cc1)C(=O)N1CCC[C@H]1C(=O)N[C@H](C(=O)C(F)(F)C(F)(F)F)C(C)C
2. CC(C)[C@H](NC(=O)Nc1ccccc1)C(=O)N1CCC[C@H]1C(=O)N[C@H](C(=O)C(F)(F)F)C(C)C ({NHPh-CO}-Val-Pro-Val-CF3)
(Q) When their pKi values are compared, which is larger, 1 or 2 ? Record your answer as the label of the chosen record.
(A) 2
(2: 8.59, 1: 7.60)

* * *

- System: Mesocricetus auratus
- Protocol Notes: Oral administration at a dose of 37.5 mg/kg 30 min prior to HNE (100 mg/hamster) and reduction in the number of white blood cells was reported
Numbered stars: 1 amine (or outer) side, 2 acyl side, 3 side chain; on linkers, the order of the positions; unused ones are H or OH. Peptide text beside a SMILES is read from it. * marks the point of attachment. CO = O=C([*:1])[*:2]; NHPh = c1ccc(N*)cc1; CF3 = FC(F)(F)*
Documented Reduction across a set of compounds
Lab book: enter the figure in %, no units written.

>  <Compound>
CC(C)[C@H](NC(=O)Nc1ccccc1)C(=O)N1CCC[C@H]1C(=O)N[C@H](C(=O)C(F)(F)F)C(C)C ({NHPh-CO}-Val-Pro-Val-CF3)

>  <Measurement Kind>
Reduction

>  <Reading Unit>
%

>  <Recorded Result>
-184

$$$$
>  <Compound>
CC(C)C(NC(=O)C1CCCN1C(=O)[C@@H](NC(=O)c1cc(C(=O)O)cc(C(=O)O)c1)C(C)C)C(=O)C(F)(F)F (stereo partly specified)

>  <Measurement Kind>
Reduction

>  <Reading Unit>
%

>  <Recorded Result>
-105

$$$$
>  <Compound>
CC(C)[C@H](NC(=O)c1ccc(O)c(O)c1)C(=O)N1CCC[C@H]1C(=O)N[C@H](C(=O)C(F)(F)F)C(C)C

>  <Measurement Kind>
Reduction

>  <Reading Unit>
%

>  <Recorded Result>
-41

$$$$
>  <Compound>
CC(C)c1cc(C(C)C)c(S(=O)(=O)N[C@H](C(=O)N2CCCC2C(=O)NC(C(=O)C(F)(F)F)C(C)C)C(C)C)c(C(C)C)c1 (stereo partly specified)

>  <Measurement Kind>
Reduction

>  <Reading Unit>
%

>  <Recorded Result>
-186

$$$$
>  <Compound>
CC(=O)N[C@H](C(=O)N1CCC[C@H]1C(=O)N[C@H](C(=O)C(F)(F)F)C(C)C)C(C)C (HELM PEPTIDE1{[ac].V.P.V.[FC(F)(F)[*:1]]}$$$$V2.0)

>  <Measurement Kind>
Reduction

>  <Reading Unit>
%

>  <Recorded Result>
-120

$$$$

According to the records, this compound "CC(C)[C@H](NC(=O)c1c[nH]cn1)C(=O)N1CCC[C@H]1C(=O)N[C@H](C(=O)C(F)(F)F)C(C)C" displays Reduction of -267

According to the records, this compound "CC(C)[C@H](NC(=O)c1ccncc1)C(=O)N1CCC[C@H]1C(=O)N[C@H](C(=O)C(F)(F)F)C(C)C" displays Reduction of -45

According to the records, this compound CC(=O)Oc1cc(OC(C)=O)cc(C(=O)N[C@H](C(=O)N2CCCC2C(=O)NC(C(=O)C(F)(F)F)C(C)C)C(C)C)c1 (stereo partly specified) displays Reduction of -12

According to the records, this compound COc1ccc(S(=O)(=O)N[C@H](C(=O)N2CCCC2C(=O)NC(C(=O)C(F)(F)F)C(C)C)C(C)C)cc1 (stereo partly specified) displays Reduction of -42

According to the records, this compound CC(C)C(NC(=O)C1CCCN1C(=O)[C@@H](NC(=O)CCC(=O)NS(=O)(=O)c1cccc2ccccc12)C(C)C)C(=O)C(F)(F)F (stereo partly specified) displays Reduction of -212

* * *

- Study System: Neutrophil elastase (Homo sapiens)
- Sequence (P08246 whole entry): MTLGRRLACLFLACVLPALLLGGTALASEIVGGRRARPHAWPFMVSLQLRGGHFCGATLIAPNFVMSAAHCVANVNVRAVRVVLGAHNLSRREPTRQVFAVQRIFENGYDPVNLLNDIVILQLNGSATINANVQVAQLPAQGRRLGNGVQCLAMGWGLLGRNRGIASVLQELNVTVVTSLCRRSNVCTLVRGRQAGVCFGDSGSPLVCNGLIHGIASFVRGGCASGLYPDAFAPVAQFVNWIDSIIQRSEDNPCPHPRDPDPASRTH
- Protocol Notes: Inhibitory activity against Human Neutrophil Elastase by HNE-catalyzed hydrolysis of MeO-Suc-Ala-Ala-Pro-Val-pNa
pKi: −log10 of the molar value. Peptide text beside a SMILES is read from it.
Measurement Kind: pKi

>  <Compound>
CC(C)[C@H](NC(=O)C(F)(F)F)C(=O)N1CCC[C@H]1C(=O)N[C@H](C(=O)C(F)(F)F)C(C)C (HELM PEPTIDE1{[O=C(C(F)(F)F)[*:2]].V.P.V.[FC(F)(F)[*:1]]}$$$$V2.0)

>  <Study System>
Neutrophil elastase (Homo sapiens)

>  <pKi>
7.82

$$$$

I. COc1cccc(OC)c1C(=O)N[C@H](C(=O)N1CCCC1C(=O)NC(C(=O)C(F)(F)F)C(C)C)C(C)C (stereo partly drawn)
II. CC(C)[C@H](NC(=O)c1ccc(F)cc1)C(=O)N1CCC[C@H]1C(=O)N[C@H](C(=O)C(F)(F)F)C(C)C
(Q) Which record shows the lower pKi: the first, I , or the second, II ? Record your answer as the label of the chosen record.
(A) I

* * *

- Study System: Neutrophil elastase (Homo sapiens, UniProt P08246)
- Sequence (P08246 whole entry): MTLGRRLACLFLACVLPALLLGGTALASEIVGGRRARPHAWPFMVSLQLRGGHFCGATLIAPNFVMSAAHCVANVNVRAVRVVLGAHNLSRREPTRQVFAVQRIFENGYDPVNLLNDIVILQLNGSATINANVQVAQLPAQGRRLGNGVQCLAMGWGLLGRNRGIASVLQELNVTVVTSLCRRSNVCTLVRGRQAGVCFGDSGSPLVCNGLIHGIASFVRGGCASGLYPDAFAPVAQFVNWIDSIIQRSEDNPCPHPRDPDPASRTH
- Protocol Notes: Inhibitory activity against Human Neutrophil Elastase by HNE-catalyzed hydrolysis of MeO-Suc-Ala-Ala-Pro-Val-pNa
pKi: −log10 of the molar value.
Measurement Kind: pKi

Recorded results for 4 compounds are shown here.
>  <Compound>
CC(C)C(NC(=O)C1CCCN1C(=O)[C@@H](NC(=O)c1ccc(C(=O)NS(C)(=O)=O)cc1)C(C)C)C(=O)C(F)(F)F (some centres not stated)

>  <Recorded Result>
8.38

$$$$
>  <Compound>
CC(C)C(NC(=O)C1CCCN1C(=O)[C@H](C(C)C)N(CCCc1ccccc1)CCCc1ccccc1)C(=O)C(F)(F)F.Cl (some centres not stated)

>  <Recorded Result>
8.77

$$$$
>  <Compound>
Cc1ccc(C(=O)N[C@H](C(=O)N2CCC[C@H]2C(=O)N[C@H](C(=O)C(F)(F)F)C(C)C)C(C)C)cc1C

>  <Recorded Result>
9.00

$$$$
>  <Compound>
COC(=O)c1ccc(C(=O)N[C@H](C(=O)N2CCCC2C(=O)NC(C(=O)C(F)(F)F)C(C)C)C(C)C)cc1 (some centres not stated)

>  <Recorded Result>
8.74

$$$$

A. CC(C)C(NC(=O)C1CCCN1C(=O)[C@@H](NC(=O)c1ccc([N+](=O)[O-])cc1)C(C)C)C(=O)C(F)(F)F (some centres not stated)
B. CC(C)c1cc(C(C)C)c(S(=O)(=O)N[C@H](C(=O)N2CCCC2C(=O)NC(C(=O)C(F)(F)F)C(C)C)C(C)C)c(C(C)C)c1 (some centres not stated)
C. CC(C)C(NC(=O)C1CCCN1C(=O)[C@@H](NC(=O)c1ccc(S(C)(=O)=O)cc1)C(C)C)C(=O)C(F)(F)F (some centres not stated)
(Q) Falling order of pKi, please. Quick reminder: the answer is the labels in the order asked.
(A) A, C, B
